PROTOCOL_DESCRIPTION: growth inhibition, single agents and combos, LFS_MB_2R, cell-based, cisplatin combos, synergistic combos for chromothripsis tumors (AID 1671457);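 also: cells exposed to compound for four days before readout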
MEASUREMENT_SETUP: LFS_MB_2R medulloblastoma cells, at 0.5 µM, stronger effect = higher value
Would you mind labelling by inhibition? At or over -10% is 1, under is 0.

MOLECULE	CLASS
O=c1[nH]c(=O)n(C2CC(O)C(CO)O2)cc1I (stereo not drawn)	1
O=c1cc(-c2ccc(O)cc2)[nH]c(=S)[nH]1	1
NC(=O)c1cccc2cn(-c3ccc(C4CCCNC4)cc3)nc12 (stereo not drawn)	1
Cn1cnc2[nH]c(=O)[nH]c(=O)c21	1
Cc1ccc(NC(=O)CCCCCC(=O)Nc2ccccc2N)cc1	0
COc1ccc(-c2nc(-c3cc(C(F)(F)F)cc(C(F)(F)F)c3)n(Cc3ccc(C(N)=O)cc3)c2-c2ccc(OC)cc2)cc1	0
CC(C)(O)[C@H]1CC[C@@](C)(C2[C@@H](O)C[C@@]3(C)[C@@H]4C[C@H](O)C5C(C)(C)[C@@H](O)CCC56CC46CC[C@]23C)O1 (stereo partly drawn)	1
CCC1(O)C(=O)OCc2c1cc1n(c2=O)Cc2cc3cc(O)ccc3nc2-1 (stereo not drawn)	1
O=c1ccn(C2CC(O)C(CO)O2)c(=O)[nH]1 (stereo not drawn)	0
NC(=O)c1ncn(C2OC(CO)C(O)C2O)c1O (stereo not drawn)	0
CN(C)C(=S)NN=C(c1ccccn1)c1ccccn1	1
NC(=S)NN=Cc1ncccc1N	0
C[C@@H]1O[C@@H](O[C@@H]2[C@@H](O)[C@H](OCCc3ccc(O)c(O)c3)O[C@H](CO)[C@H]2OC(=O)C=Cc2ccc(O)c(O)c2)[C@H](O)[C@H](O)[C@H]1O	0
C=C(NC(=O)C(=C)NC(=O)c1csc(C2=NC3c4csc(n4)C4NC(=O)c5csc(n5)C(C(C)(O)C(C)O)NC(=O)C5CSC(=N5)/C(=C/C)NC(=O)C(C(C)O)NC(=O)c5csc(n5)C3(CC2)NC(=O)C(C)NC(=O)C(=C)NC(=O)C(C)NC(=O)C(C(C)CC)NC2C=Cc3c(C(C)O)cc(nc3C2O)C(=O)OC4C)n1)C(N)=O (stereo not drawn)	0
CC(=O)C1(O)Cc2c(O)c3c(c(O)c2C(OC2CC(N)C(O)C(C)O2)C1)C(=O)c1ccccc1C3=O (stereo not drawn)	1
C=C1CCC(O)CC1=CC=C1CCCC2(C)C1CCC2C(C)C=CC(C)C(C)C (stereo not drawn)	0

* * *

In this section, each of the compounds is paired with its reported fluorescence ratio.
PROTOCOL_DESCRIPTION: compounds distorting NS3 helicase fluorescence signal – biochemical, NIH Clinical Collection, artefact control for HCV NS3 helicase inhibitor project (AID 743272);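 also: HCV NS3 helicase with a Cy5 labelled single stranded DNA probe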
MEASUREMENT_SETUP: fluorescence interference counterscreen, HCV NS3 helicase assay; stronger effect = lower value
RECORDED_ENDPOINT: fluorescence ratio

SMILES_STRING	RECORDED_ENDPOINT	NUMBER
O=C(O)COCCN1CCN([C@@H](c2ccccc2)c2ccc(Cl)cc2)CC1	fluorescence ratio	0.95
COc1ccc2cc([C@@H](C)C(=O)O)ccc2c1	fluorescence ratio	0.94
CC/C(O)=N/S(=O)(=O)c1ccc(-c2c(-c3ccccc3)noc2C)cc1	fluorescence ratio	1.01
CO[C@H]1C=CO[C@@]2(C)Oc3c(C)c(O)c4c(O)c(c5c(c4c3C2=O)=NC2(CCN(CC(C)C)CC2)N=5)NC(=O)C(C)=CC=C[C@H](C)[C@H](O)[C@@H](C)[C@@H](O)[C@@H](C)[C@H](OC(C)=O)[C@@H]1C	fluorescence ratio	0.96
CO[C@H]1C=CO[C@@]2(C)Oc3c(C)c(O)c4c(O)c(c(/C=N/N5CCN(C6CCCC6)CC5)c(O)c4c3C2=O)NC(=O)C(C)=CC=C[C@H](C)[C@H](O)[C@@H](C)[C@@H](O)[C@@H](C)[C@H](OC(C)=O)[C@@H]1C	fluorescence ratio	1.01

* * *

PROTOCOL_DESCRIPTION: MELAS cybrid and Rieske KO viability enhancers – cell-based, MELAS cybrids, Rieske KO mouse fibroblasts, CellTiter-Glo, primary screen (AID 1508586);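 also: z relative to plate mean and SD of compound and empty wells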
MEASUREMENT_SETUP: Rieske KO mouse fibroblast survival, low glucose, CellTiter-Glo 72 h
In this section, each of the compounds is paired with its reported z-score.
RECORDED_ENDPOINT: z-score

In [3]: df
Out[3]:
                                   compound  number
0  Cc1cc(C)n(CCCNc2ncc(C)c(-c3cnn(C)c3)n2)n1   0.144
1  Cc1nsc(NC(=O)N[C@@H]2CCCC[C@H]2c2ccccc2)n1  -0.546
2  CSCCC(NC(C)=O)C(=O)O (stereo unspecified)  -0.087
3    O=C1CN(c2ncnc3nc[nH]c23)CCN1CCc1ccccc1  -0.816
4      Cc1csc(CNC(=O)Cc2csc(-c3ccccc3)n2)n1  0.0782
5  CC(=O)N(CC(C)C(=O)O)c1c(I)cc(I)c(N)c1I (stereo unspecified)   0.109

* * *

PROTOCOL_DESCRIPTION: P. berghei load reduction in hepatocytes – cell-based, HepG2, luciferase luminescence, HepG2 viability, primary screen (AID 624349);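 also: 100% = mean of DMSO negative control wells on the same plate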
MEASUREMENT_SETUP: P. berghei liver stage in HepG2, luciferase luminescence, concentration not given here; stronger effect = lower value
just bin them by parasite load remaining: lowest (below 40%), middle (40% to below 70%), highest (70% or more)

COMPOUND	CLASS
CCC(C)N1CCC2(CC1)N=c1c(c3c4c5c(C)c(O)c3c(O)c1=NC(=O)/C(C)=C/C=C/[C@H](C)[C@H](O)[C@@H](C)[C@@H](O)[C@@H](C)[C@H](OC(C)=O)[C@H](C)[C@@H](OC)/C=C/O[C@@](C)(O5)C4=O)N2 (stereo partly drawn)	highest
CN1[C@@H](C[C@H](O)c2ccccc2)CCC[C@H]1CC(=O)c1ccccc1	middle
N#C/C(=C1/Nc2ccccc2S1)c1ccnc(NCCc2cccnc2)n1	lowest
NCCNc1ncc(C(N)=O)c(Nc2cccc(C(F)(F)F)c2)n1	lowest
CC[C@H]1OC(=O)[C@H](C)[C@@H](O[C@H]2C[C@@](C)(OC)[C@@H](O)[C@H](C)O2)[C@H](C)[C@@H](O[C@H]2O[C@H](C)C[C@H](N(C)C)[C@H]2O)[C@](C)(O)C[C@@H](C)C(=O)[C@H](C)[C@@H](O)[C@]1(C)O	highest
CC[C@H]1OC(=O)[C@H](C)[C@@H](OC2C[C@@](C)(OC)[C@@H](O)[C@H](C)O2)[C@H](C)[C@@H](O[C@@H]2O[C@H](C)C[C@H](N(C)C)[C@H]2O)[C@](C)(O)C[C@@H](C)/C(=N\OCOCCOC)[C@H](C)[C@@H](O)[C@]1(C)O (stereo partly drawn)	highest
O=C1NC(=NCc2cccs2)S/C1=C\c1ccc2ncccc2c1	lowest
COc1cc([C@@H]2c3cc4c(cc3[C@@H](O[C@@H]3O[C@@H]5CO[C@@H](C)O[C@H]5[C@H](O)[C@H]3O)C3COC(=O)[C@@H]32)OCO4)cc(OC)c1O (stereo partly drawn)	middle
O=C1Nc2ccccc2/C1=C\c1c(Cl)[nH]c2ccccc12	lowest
C[C@H](C(=O)O)c1cccc(C(=O)c2ccccc2)c1	middle
CCCCCCCCCCCCCCCC(=O)O[C@@H]1[C@@H](O)[C@@H](O)[C@@H](C(NC(=O)[C@@H]2C[C@@H](CCC)CN2C)C(C)Cl)O[C@@H]1SC (stereo partly drawn)	middle
CCC(=O)OCC(=O)[C@@]1(OC(=O)CC)[C@@H](C)C[C@H]2[C@@H]3CCC4=CC(=O)C=C[C@]4(C)C3(F)[C@@H](O)C[C@@]21C (stereo partly drawn)	lowest
CC1(C)C[C@H]1C(=O)N/C(=C\CCCCSC[C@@H](N)C(=O)O)C(=O)O	lowest
CC(C)(CO)C(O)C(=O)NCCC(=O)O (stereo not drawn)	highest
CC(C)(CO)[C@H](O)C(=O)NCCC(=O)O	highest
Nc1ncnc2c1c(-c1ccc(Oc3ccccc3)cc1)cn2C1CCCC1	lowest
Ic1cccc(CSc2nnc(-c3ccncc3)o2)c1	lowest
C[C@@H]1C(=O)O[C@H]2CC34[C@H]5C[C@@H](C(C)(C)C)C36[C@@H](OC(=O)[C@@H]6O)OC4(C(=O)O5)[C@]21O (stereo partly drawn)	highest
CC(=O)Nc1c(I)c(C(=O)N[C@H]2C(O)O[C@H](CO)[C@@H](O)[C@@H]2O)c(I)c(N(C)C(C)=O)c1I (stereo partly drawn)	highest
CC[N+](CC)(CC)CCC(O)(c1ccccc1)C1CCCCC1 (stereo not drawn)	highest
CC(C)[N+]1(C)[C@@H]2CC[C@H]1CC(OC(=O)C(CO)c1ccccc1)C2 (stereo partly drawn)	highest
O=c1c(-c2ccc(F)cc2)c(-c2ccncc2)[nH]n1-c1ccc(Cl)cc1	lowest
Cc1cc(Nc2nc(-c3ccccc3)nc3ccccc23)n[nH]1	lowest
C[C@H]1[C@H](C)CC[C@]2(C(=O)O[C@@H]3O[C@H](COC4O[C@H](CO)[C@@H](OC5O[C@@H](C)[C@H](O)[C@@H](O)[C@H]5O)[C@H](O)[C@H]4O)[C@@H](O)[C@H](O)[C@H]3O)CC[C@]3(C)C(=CC[C@@H]4[C@@]5(C)C[C@@H](O)[C@H](O)[C@@](C)(CO)C5CC[C@]43C)[C@H]12 (stereo partly drawn)	highest
Cc1nc(-c2ccccc2)c(-c2ccncc2)o1	middle
O=C1C(C2=C3C(=Nc4ccccc43)/C(=C\c3ccc(O)cc3)C2=O)=C2C(=Nc3ccccc32)/C1=C\c1ccc(O)cc1	middle
CC(C)n1cnc2c(Nc3cccc(Cl)c3)nc(NCCO)nc21	lowest
CC(C)CC(=O)NC(C(=O)N[C@H](C(=O)NC(CC(C)C)[C@@H](O)CC(=O)N[C@@H](C)C(=O)NC(CC(C)C)[C@@H](O)CC(=O)O)C(C)C)C(C)C (stereo partly drawn)	middle
